quantity measured: entrapment efficiency (EE)
Kindly write the number and append the unit.

Problem: Fill in: entrapment efficiency (EE) of CC(=O)N[C@@H](CCCNC(=N)N)C(=O)N[C@@H](CCCCN)C(=O)N[C@@H](CCCCN)C(=O)N[C@@H](CCCNC(=N)N)C(=O)N[C@@H](CCCNC(=N)N)C(=O)N[C@@H](CCC(N)=O)C(=O)N[C@@H](CCCNC(=N)N)C(=O)N[C@@H](CCCNC(=N)N)C(=O)N[C@@H](CCCNC(=N)N)C(N)=O is ___
Result: 95%

Source listed as paper PMC10671715.
